Target: UniProt P05979
Sequence (P05979 25-600): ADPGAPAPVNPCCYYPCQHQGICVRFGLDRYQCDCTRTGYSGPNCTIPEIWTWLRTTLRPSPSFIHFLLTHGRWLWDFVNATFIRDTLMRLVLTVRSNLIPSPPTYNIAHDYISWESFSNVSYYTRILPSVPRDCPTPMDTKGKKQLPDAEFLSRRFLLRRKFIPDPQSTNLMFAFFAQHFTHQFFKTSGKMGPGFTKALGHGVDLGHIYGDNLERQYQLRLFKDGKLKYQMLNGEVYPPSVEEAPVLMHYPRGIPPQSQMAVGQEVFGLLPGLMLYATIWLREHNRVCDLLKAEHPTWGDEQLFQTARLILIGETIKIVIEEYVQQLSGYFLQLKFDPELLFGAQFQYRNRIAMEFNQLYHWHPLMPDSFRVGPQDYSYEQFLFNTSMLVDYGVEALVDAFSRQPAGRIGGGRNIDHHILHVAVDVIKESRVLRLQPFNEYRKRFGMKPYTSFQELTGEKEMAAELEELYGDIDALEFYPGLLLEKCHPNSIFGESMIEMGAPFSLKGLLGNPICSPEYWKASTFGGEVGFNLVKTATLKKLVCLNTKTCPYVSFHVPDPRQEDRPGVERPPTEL
Experiment: COX-1 inhibition assay (Cayman Chem kit)
Property measured: IC50 (µM)
Form entry: value (µM) — number only.

Field IC50 (entry `COc1cc(C[C@H]2CO[C@H](c3ccc(O)c(OC)c3)[C@H]2CO)ccc1O` ) reads 24.2
